This collection of values is drawn from ChEMBL document CHEMBL3271995.

Here the recorded Activity is given for each entry.
# Tested on: Ehrlich
# Protocol: Antineoplastic activity against mouse EAC allografted in CF1 mouse assessed as packed cell volume on day 7 measured at 33 mg/kg (reference value: 32.75 +/- 7.87%)
# Assay type: functional
Measured property: Activity (%)

Cc1ccc(S(=O)(=O)N[C@@H](Cc2ccccc2)C(=O)CCl)cc1 [TPCK] ... 0.05
N#CCOC(=O)[C@H](Cc1ccc(O)cc1)NC(=O)OCc1ccccc1 ... 31.1
CC=O ... 56
O=Cc1ccccc1 [BENZALDEHYDE] ... 49
CC(C)C[C@H](NC(=O)OCc1ccccc1)C(=O)OCC#N ... 38
C#CCOC(=O)C[C@H](NC(=O)OCc1ccccc1)C(=O)OCC#C ... 21

----------
# Tested on: W256
# Protocol: Antitumor activity against rat Walker 256 cells allografted in Sprague-Dawley rat assessed as animal survival days at 2.5 mg/kg/day, ip
# Format: functional
# Condition set: route intraperitoneal
Measured property: Survival (days)

N[C@@H](Cc1ccc(N(CCCl)CCCl)cc1)C(=O)O ... 23
O=C(CCCNC(=O)OCc1ccccc1)OC(Br)CBr (stereo unspecified) ... 18.1
O=C(CNC(=O)OCc1ccccc1)OC(Br)CBr (stereo unspecified) ... 10.1
CC(C)C[C@H](NC(=O)OCc1ccccc1)C(=O)OC(Br)CBr (stereo partly specified) ... 8.5
C#CCOC(=O)CCCNC(=O)OCc1ccccc1 ... 23
C=COC(=O)[C@H](Cc1c[nH]c2ccccc12)NC(=O)OCc1ccccc1 ... 8

----------
# System: Ehrlich
# Protocol: Antineoplastic activity against mouse EAC allografted in CF1 mouse assessed as packed cell volume on day 7 measured at 33 mg/kg (reference value: 32.75 +/- 7.87%)
# Assay type: functional
Measured property: Activity (%)

C=COC(=O)[C@@H]1CCCN1C(=O)OCc1ccccc1 ... 35
C=COC(=O)CC[C@H](NC(=O)OCc1ccccc1)C(=O)OC=C ... 37
N#CCOC(=O)[C@H](Cc1c[nH]c2ccccc12)NC(=O)OCc1ccccc1 ... 19.7
N#CCOC(=O)C[C@H](NC(=O)OCc1ccccc1)C(=O)OCC#N ... 33
N#CCOC(=O)[C@H](Cc1ccccc1)NC(=O)OCc1ccccc1 ... 0.1
Cc1ccc(S(=O)(=O)N[C@@H](Cc2ccccc2)C(=O)OCC#N)cc1 ... 3.4
C=COC(=O)[C@H](Cc1ccccc1)NC(=O)OCc1ccccc1 ... 0.4
C=COC(=O)[C@H](CC(C)C)NC(=O)OCc1ccccc1 ... 38
N#CCOC(=O)[C@H](CCC(N)=O)NC(=O)OCc1ccccc1 ... 40
Cc1ccc(S(=O)(=O)N[C@@H](Cc2ccc(OS(=O)(=O)c3ccc(C)cc3)cc2)C(=O)OCC#N)cc1 ... 6.5

----------
# Tested on: Ehrlich
# Protocol: Antineoplastic activity against mouse EAC allografted in CF1 mouse assessed as packed cell volume on day 7 measured at 33 mg/kg (reference value: 32.75 +/- 7.87%)
# Type: functional
Categorized via Activity: low value (below 20%), medium value (20% to below 30%), high value (30% or more)

O=C(CNC(=O)OCc1ccccc1)OC(Br)CBr (stereo not given) ... low value
O=C(CCCNC(=O)OCc1ccccc1)OC(Br)CBr (stereo not given) ... low value
N#CCOC(=O)CC[C@H](NC(=O)OCc1ccccc1)C(=O)OCC#N ... high value
O=C(O)CCCCCNC(=O)OCc1ccccc1 ... high value
C#CCOC(=O)CCCNC(=O)OCc1ccccc1 ... high value
CC(C)C[C@H](NC(=O)OCc1ccccc1)C(=O)OC(Br)CBr (stereo not given in full) ... low value
C=COC(=O)[C@H](Cc1c[nH]c2ccccc12)NC(=O)OCc1ccccc1 ... low value
N#CCOC(=O)CCCNC(=O)OCc1ccccc1 ... high value
C=COC(=O)CCCCCNC(=O)OCc1ccccc1 ... high value
O=C(O)CC[C@H](NC(=O)OCc1ccccc1)C(=O)O ... medium value
O=C(O)C[C@H](NC(=O)OCc1ccccc1)C(=O)O ... medium value
O=C(OC(Br)CBr)[C@@H]1CCCN1C(=O)OCc1ccccc1 (stereo not given in full) ... low value
C#CCOC(=O)CNC(=O)OCc1ccccc1 ... medium value
C=COC(=O)CNC(=O)OCc1ccccc1 ... high value
N#CCOC(=O)CCCCCNC(=O)OCc1ccccc1 ... high value
O=C(O)CCCNC(=O)OCc1ccccc1 ... high value
C=COC(=O)[C@H](Cc1ccccc1)NS(=O)(=O)c1ccc(C)cc1 ... low value
C=COC(=O)[C@H](Cc1ccccc1)NC(=O)c1ccccc1 ... low value
C=COC(=O)CCCNC(=O)OCc1ccccc1 ... high value
C#CCOC(=O)[C@H](CC(C)C)NC(=O)OCc1ccccc1 ... medium value
O=C(O)[C@@H]1CCCN1C(=O)OCc1ccccc1 ... high value
C=COC(=O)[C@H](Cc1ccc(O)cc1)NS(=O)(=O)c1ccc(C)cc1 ... low value
N#CCOC(=O)CNC(=O)OCc1ccccc1 ... high value
Sc1ncnc2nc[nH]c12 [MERCAPTOPURINE ANHYDROUS] ... low value
